# System: RXF 393
# EXPERIMENT: NCI tumour cell line growth inhibition, 48 h
Calls of active or inactive are those of the source. Rule as the data show it: active = GI50 up to about 1.1 µM and inactive = higher.
Outcomes: yes (1) for active, no (0) for inactive

MOLECULE	ASSIGNED_CLASS
Nc1c(F)c(F)c2c(c1F)N(CCCCCl)c1ccccc1S2	no (0)
CCOC(=O)NC(=O)c1cn(CCCCCOC(=O)NCCCCCCNC(=O)OCCCCCn2cc(C(=O)NC(=O)OCC)c(=O)[nH]c2=O)c(=O)[nH]c1=O	no (0)
CCCCC1NC=Nc2c1ccc1c2[nH]c2ccccc21 (centres undefined)	yes (1)
O=C1OCC2=C1C(c1ccc(Cl)cc1)c1cc3c(cc1O2)OCO3 (centres undefined)	no (0)
C(=N\CCCN1CCN(CCC/N=C/c2cccc3ccccc23)CC1)/c1cccc2ccccc12	no (0)
Cc1nc(-n2nc(-c3ccccc3)cc2-c2ccccc2)sc1C(=O)/C=C/c1cccc([N+](=O)[O-])c1	no (0)
COc1nc(NC2OCC(OC(C)=O)C(OC(C)=O)C2OC(C)=O)c(/N=C(\C)C(C)=O)c(=O)n1C (centres undefined)	no (0)
COc1cccc2c1C(=O)c1ccc3cc(CCl)cc(O)c3c1C2=O	yes (1)
O=C1c2cccc3cc([N+](=O)[O-])cc(c23)C(=O)N1CCCN1CCN(CCCNc2ccc3ncn4c5ccccc5c(=O)c2c34)CC1	yes (1)

----------
Measured GI50 values are reported for all entries that follow.
# System: SK-MEL-2
# EXPERIMENT: NCI tumour cell line growth inhibition, 48 h
Calls of active or inactive are those of the source. Rule as the data show it: active = GI50 up to about 1.1 µM and inactive = higher.

COMPOUND	GI50
CCN1C(=O)C(=C/C=C/c2ccc(N(CC)CC)cc2)C(=O)N(CC)C1=S	68.5 µM (inactive)
O=c1ccn(C2OC(CO)C(O)C2[Se]c2ccccc2)c(=O)[nH]1 (stereo not given)	> 100 µM (inactive)
CO/N=C1\CC(NC(=O)CNC(=O)OC(C)(C)C)c2ccsc21 (stereo not given)	> 100 µM (inactive)
COC(=O)CNC(=O)CSc1nnc(COc2ccc(Cl)cc2)n1-c1ccccc1	23.5 µM (inactive)
COc1ccc(CCNC(=O)Cc2cc(OC)c(OC)cc2CO)cc1OC	> 100 µM (inactive)
COc1cccc(-c2nc(N)c(C#N)c3c2CCS(=O)(=O)c2ccc(C)cc2-3)c1	38.3 µM (inactive)
N=C(CC(=O)Nc1ccc(Cl)cc1)Nc1ccccc1	> 100 µM (inactive)
O=C(CCN1CCCCC1)Nc1ccc2c(c1)C(=O)c1ccc(NC(=O)CCN3CCCCC3)cc1C2=O	5.16 µM (inactive)
N#Cc1c(=O)c2ccccc2n2c1[nH]c1ccccc12	47.3 µM (inactive)
C=CCN1CCC(OC(=O)C(O)(/C=C\CC)C2CCCC2)CC1 (stereo not given)	> 100 µM (inactive)

----------
# System: M19-MEL
# EXPERIMENT: NCI tumour cell line growth inhibition, 48 h
Active and inactive are the calls of the source. Cut-off read from the data, not from the text of the source: active = GI50 up to about 1.1 µM and inactive = higher.
Possible outcomes: active, inactive

MOLECULE	ASSIGNED_CLASS
COC(=O)C[C@](O)(CCC(C)(C)O)C(=O)O[C@@H]1C(OC)=C[C@]23CCCN2CCc2cc4c(cc2[C@H]13)OCO4 [HARRINGTONINE]	active
CC1c2c(Cl)nc3ccccc3c2Oc2c1c(Cl)nc1ccccc21	inactive
COP1(=O)Oc2ccccc2C(=O)C(C(F)(F)F)(C(F)(F)F)O1 (stereo not given)	inactive
CCOc1ccccc1NC(=O)CSc1nnc(Cc2ccccc2)o1	inactive
Cc1nc2nn(Cc3ccccc3)cc2c(=O)o1	inactive

----------
# Test system: SF-295
# EXPERIMENT: NCI tumour cell line growth inhibition, 48 h
Calls of active or inactive are those of the source. Rule as the data show it: active = GI50 up to about 1.1 µM and inactive = higher.
Below: a set of entries, each annotated with reported GI50.

COMPOUND	GI50
O=C1Cc2nc(CO)c(CO)c(CO)c2CO1	> 100 µM (inactive)
C#CCOCCCC(=O)O	> 100 µM (inactive)
CCOc1ccc(/C=C2\N=C(c3ccccc3)OC2=O)cc1	> 100 µM (inactive)
O=CN(O)CC(=O)O	> 100 µM (inactive)
CCCCN1C(=O)NC(Cc2ccccc2)C1=O (configuration not stated)	> 100 µM (inactive)
Nc1nc2c(c(=O)[nH]1)C(c1ccc(Cl)cc1)C=C(c1ccccc1)N2 (configuration not stated)	26.7 µM (inactive)
O=C1CCCCCCCCCCC(=O)N2CCOCCOCCN1Cc1cccc(n1)C2	65.5 µM (inactive)
Cc1cccc(O)c(=O)c1	39.7 µM (inactive)
CN(C)c1ccc(/C=C/c2ccc(/C=C/c3ccc(N(C)C)cc3)cc2)cc1	89.1 µM (inactive)
COP1(=O)Oc2ccccc2C(=O)C(C(F)(F)F)(C(F)(F)F)O1 (configuration not stated)	> 100 µM (inactive)
O=C(CN1CCCC1)Nc1ccc2sc3ccccc3c(=O)c2n1	22.6 µM (inactive)
OC12c3ccccc3C3CCC4(OCCO4)C3C1c1ccccc12 (configuration not stated)	> 100 µM (inactive)

----------
# System: ACHN
# EXPERIMENT: NCI tumour cell line growth inhibition, 48 h
The source made the active and inactive calls. Rule as the data show it: active = GI50 up to about 1.1 µM and inactive = higher.
Possible outcomes: active, inactive

COMPOUND	ASSIGNED_CLASS
O=C1CCCC(=O)N1n1c(Cc2ccccc2)n[nH]c1=O	inactive
COc1ccc(-c2coc3c4c(ccc3c2=O)OCO4)cc1OC	inactive
C[N+](C)=c1[nH]c2ccccc2[nH]1	inactive
NC(=S)N/N=C\c1nccc2ccccc12	active
Cn1cc(NC(=O)Nc2cc(C(=O)Nc3cc(C(=O)Nc4ccc(S(=O)(=O)O)c5cc(S(=O)(=O)O)ccc45)n(C)c3)n(C)c2)cc1C(=O)Nc1cc(C(=O)Nc2ccc(S(=O)(=O)O)c3cc(S(=O)(=O)O)ccc23)n(C)c1	inactive
CCCCc1c2c(nc3c1CCCC3O)/C(=C/c1ccccc1)CCC2 (stereo unspecified)	inactive

----------
# Tested on: IGROV-1
# EXPERIMENT: NCI tumour cell line growth inhibition, 48 h
Calls of active or inactive are those of the source. Rule as the data show it: active = GI50 up to about 1.1 µM and inactive = higher.

COMPOUND	GI50
O=C(O)/C=C(/CC(=O)O)C(=O)O	20.9 µM (inactive)
NC(=O)Nc1n[nH]c(-c2ccccc2)n1	> 100 µM (inactive)
C[C@]12CC[C@H]3[C@@H](CCC4=CC(=O)CC[C@@]43C)[C@@H]1CC[C@@H]2OC(=O)c1cccc2c(=O)c3ccccc3[nH]c12	> 100 µM (inactive)
CN(C)c1ccc(/C=C2\CCCCCC2=O)cc1	> 100 µM (inactive)
COC(=O)C1=C(OC(=O)/C(=C/c2ccc(Cl)cc2)c2ccccc2)C(C(=O)OC)[C@@]2(O)[C@@H](C(=O)OC)[C@H](C)C[C@@H]1[C@@H]2C(=O)OC (some centres undefined)	23.6 µM (inactive)
CCCCNC(=O)c1cc2c(cc1Cl)Sc1nccn1S2(=O)=O	> 100 µM (inactive)
COC(=O)[C@H](Cc1ccccc1)NP(=O)(OCCC#N)OCC1OC(n2cc(C)c(=O)[nH]c2=O)CC1N=[N+]=[N-] (some centres undefined)	> 100 µM (inactive)
O=C(O)C1=C(C(=O)O)Oc2ccccc2O1	> 100 µM (inactive)
C[N+]1(CCC(=O)c2ccco2)CC2CCC(CC2)C1 (centres undefined)	> 100 µM (inactive)

----------
# Tested on: NCI-H226
# EXPERIMENT: NCI tumour cell line growth inhibition, 48 h
The source made the active and inactive calls. Rule as the data show it: active = GI50 up to about 1.1 µM and inactive = higher.
Items are presented alongside their recorded GI50.

COMPOUND	GI50
Cn1c2ccccc2n2c3ccccc3c(=S)c(C#N)c12	> 100 µM (inactive)
N#Cc1ccc(C(O)C(F)(F)c2nc3ccccc3o2)cc1 (configuration not stated)	32.9 µM (inactive)
C=CCC(N(C)C(=O)[C@H](Cc1ccccc1)NC(=O)OCc1ccccc1)P(=O)(Oc1ccccc1)Oc1ccccc1 (some centres not stated)	> 100 µM (inactive)
CC1C(=O)O[C@H]2C1CC[C@@]1(C)[C@H](O)CC[C@@]13C[C@]2(O)OO3 (some centres not stated)	> 100 µM (inactive)
NC(=O)Cc1ncn(-c2ccccc2)n1	> 100 µM (inactive)
Cc1cccc(O)c(=O)c1	3.3 µM (inactive)
C=C(Cl)C(Cl)(CCl)CCC(Br)C(C)(C)Br (configuration not stated)	> 10 µM (inactive)
O=c1ccn(C2OC(CO)C(O)C2[Se]c2ccccc2)c(=O)[nH]1 (configuration not stated)	> 100 µM (inactive)
CC1CC#CCOC(=O)CCCC1=O (configuration not stated)	> 100 µM (inactive)
COc1ccc(-c2nc(N(C)C)c3ccccc3n2)cc1	3.31 µM (inactive)
COC1=C(N2CC2)C(=O)c2nc3n(c2C1=O)CCC3	1.87 µM (inactive)
CC(Oc1ccccc1)C(=O)NN (configuration not stated)	> 100 µM (inactive)
O=C(OCc1ccccc1[N+](=O)[O-])N1c2ccccc2[C@@]23O[C@]24CCC[C@H]3C#C/C=C\C#C[C@H]14	> 100 µM (inactive)
COc1cccc(-c2nc(N)c(C#N)c3c2CCS(=O)(=O)c2ccc(C)cc2-3)c1	> 51.5 µM (inactive)
COc1ccc(C2CC(=O)CC(c3ccc(OC)cc3)C23C(=O)NC(=S)NC3=O)cc1 (configuration not stated)	> 100 µM (inactive)
N#Cc1c(N2CCOCC2)[nH]c(=O)c(C(c2c(Cl)cccc2Cl)c2c(O)c(C#N)c(N3CCOCC3)[nH]c2=O)c1O	23 µM (inactive)
COc1cc(C(=O)C/C(CCC(=O)Nc2ccccc2[N+](=O)[O-])=N\NC(=O)C(N)=O)ccc1O	> 100 µM (inactive)
CN1Nc2ccccc2CC1=O	> 100 µM (inactive)
COc1cc2c(cc1-c1coc3cc(O)ccc3c1=O)OCO2	20.3 µM (inactive)
Cn1c2c(c3ccccc31)C1CCCCCCC1C1C(=O)OC(=O)C21 (configuration not stated)	63 µM (inactive)
CC1(C)CCC2=C(O1)/C(=N\Nc1ccc(S(N)(=O)=O)cc1)c1ccccc1C2=O	4.99 µM (inactive)
Cc1cc2c(C)cc(=O)[nH]c2cc1N	> 100 µM (inactive)
